measurementTarget: hMC1-R (Homo sapiens, UniProt Q01726)
Construct: expressed in transfected cells; host or cells: CHO-K1
Sequence (Q01726 whole entry): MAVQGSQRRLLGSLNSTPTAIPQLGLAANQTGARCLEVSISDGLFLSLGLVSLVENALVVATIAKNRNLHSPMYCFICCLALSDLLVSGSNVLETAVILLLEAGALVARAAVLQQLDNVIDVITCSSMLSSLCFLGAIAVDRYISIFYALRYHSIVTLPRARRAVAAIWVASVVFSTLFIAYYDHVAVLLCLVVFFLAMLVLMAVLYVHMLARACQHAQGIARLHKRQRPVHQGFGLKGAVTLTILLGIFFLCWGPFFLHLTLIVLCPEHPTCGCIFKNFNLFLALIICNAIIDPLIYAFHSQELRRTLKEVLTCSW
testDetails: Radioligand binding assay, [125I]-NDP-α-MSH competition, CHO-K1 membranes
conditionParameters: Ki hMC1-R, Table 5
assayEndpoint: Ki

Prompt line: Looking for the measured Ki of CC(=O)N[C@H](CCCNC(=N)N)C(=O)N[C@H]1CSSC(C)(C)[C@@H](C(N)=O)NC(=O)[C@H](Cc2c[nH]c3ccccc23)NC(=O)[C@H](CCCNC(=N)N)NC(=O)[C@@H](Cc2ccccc2)NC(=O)[C@H](Cc2c[nH]cn2)NC(=O)[C@@H](C)NC1=O , can you help?
Response line: 8.29 nM

Prompt line: Entry CCCC[C@H](NC(C)=O)C(=O)N[C@H]1CSSC[C@@H](C(N)=O)NC(=O)[C@H](Cc2c[nH]c3ccccc23)NC(=O)[C@H](CCCNC(=N)N)NC(=O)[C@@H](Cc2ccccc2)NC(=O)[C@H](Cc2c[nH]cn2)NC(=O)[C@@H](C)NC1=O please
Response line: 11 nM

Prompt line: What about CCCC[C@H](NC(C)=O)C(=O)N[C@H]1CSSC(C)(C)[C@@H](C(N)=O)NC(=O)[C@H](Cc2c[nH]c3ccccc23)NC(=O)[C@H](CCCNC(=N)N)NC(=O)[C@@H](Cc2ccccc2)NC(=O)[C@H](Cc2c[nH]cn2)NC(=O)[C@@H](C)NC1=O ?
Response line: 29.1 nM

Prompt line: // repeat for CCCC[C@H](NC(C)=O)C(=O)N[C@H]1CSSC[C@@H](C(=O)O)NC(=O)[C@H](Cc2c[nH]c3ccccc23)NC(=O)[C@H](CCCNC(=N)N)NC(=O)[C@@H](Cc2ccccc2)NC(=O)[C@H](Cc2c[nH]cn2)NC(=O)[C@@H](C)NC1=O and report
Response line: 30.7 nM

---

measurementTarget: hMC4-R (Homo sapiens, UniProt P32245)
Construct: expressed in transfected cells; host or cells: CHO-K1
Sequence (P32245 whole entry): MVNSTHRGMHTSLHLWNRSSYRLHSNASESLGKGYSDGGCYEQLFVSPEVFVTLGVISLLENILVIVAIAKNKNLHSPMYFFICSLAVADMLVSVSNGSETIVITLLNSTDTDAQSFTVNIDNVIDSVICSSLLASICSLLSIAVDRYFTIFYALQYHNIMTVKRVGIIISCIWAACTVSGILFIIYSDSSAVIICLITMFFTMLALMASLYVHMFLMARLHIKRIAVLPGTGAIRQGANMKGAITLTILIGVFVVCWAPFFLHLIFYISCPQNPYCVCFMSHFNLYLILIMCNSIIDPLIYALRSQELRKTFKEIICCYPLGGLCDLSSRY
testDetails: cyclic AMP bioassay (ECL) in CHO-K1 cells
Assay type: cell-based
assayEndpoint: EC50 (nM)
# output: bare number, implied unit nM

Worked cases, EC50 given:
CCCC[C@@H](C(=O)N[C@H]1CSSC[C@@H](C(N)=O)NC(=O)[C@H](Cc2c[nH]c3ccccc23)NC(=O)[C@H](CCCNC(=N)N)NC(=O)[C@@H](Cc2ccccc2)NC(=O)[C@H](Cc2cnc[nH]2)NC(=O)[C@@H](C)NC1=O)N1C(=O)N[C@@H](C(C)C)C1=O	0.977
CCCC[C@H](NC(C)=O)C(=O)N[C@@H]1C(=O)N[C@H](C)C(=O)N[C@@H](Cc2c[nH]cn2)C(=O)N[C@H](Cc2ccccc2)C(=O)N[C@@H](CCCNC(=N)N)C(=O)N[C@@H](Cc2c[nH]c3ccccc23)C(=O)N[C@H](C(N)=O)CSSC1(C)C	0.531
C[C@H]1NC(=O)[C@@H](NC(=O)CN2C(=O)CNC2=O)CSSC[C@@H](C(N)=O)NC(=O)[C@H](Cc2c[nH]c3ccccc23)NC(=O)[C@H](CCCNC(=N)N)NC(=O)[C@@H](Cc2ccccc2)NC(=O)[C@H](Cc2cnc[nH]2)NC1=O	0.336

Prompt line: Find the recorded EC50 belonging to C[C@H]1NC(=O)[C@@H](NC(=O)[C@H](CCCNC(=N)N)N2C(=O)CNC2=O)CSSC[C@@H](C(N)=O)NC(=O)[C@H](Cc2c[nH]c3ccccc23)NC(=O)[C@H](CCCNC(=N)N)NC(=O)[C@@H](Cc2ccccc2)NC(=O)[C@H](Cc2cnc[nH]2)NC1=O and report it.
Response line: 0.599

Prompt line: And CC(=O)N[C@@H](CCCNC(=N)N)C(=O)N[C@H]1CSSC(C)(C)[C@@H](C(N)=O)NC(=O)[C@H](Cc2c[nH]c3ccccc23)NC(=O)[C@H](CCCNC(=N)N)NC(=O)[C@@H](Cc2ccccc2)NC(=O)[C@H](Cc2c[nH]cn2)NC(=O)[C@@H](C)NC1=O ?
Response line: 0.79

Prompt line: Param item: C[C@H]1NC(=O)[C@@H](NC(=O)CN2C(=O)N[C@@H](CCCNC(=N)N)C2=O)CSSC[C@@H](C(N)=O)NC(=O)[C@H](Cc2c[nH]c3ccccc23)NC(=O)[C@H](CCCNC(=N)N)NC(=O)[C@@H](Cc2ccc3ccccc3c2)NC(=O)[C@H](Cc2cnc[nH]2)NC1=O
Response line: 21.2
